Consider the following molecules and their measured microsomal CLint readings.
RUN_DESCRIPTION: Clearance in human liver microsomes assessed per mg of protein
Type: ADME, Microsome
MEASUREMENT_SETUP: read-out: CLH
Express the result in µL/min/mg but write the number alone.

Below, each entry is followed by its recorded microsomal CLint result.
* CCNC(=O)Nc1sc2ccccc2c1C(=O)N1CCC(N2CCCC3(C2)C(=O)N2CCCN2C3=O)CC1 | 25
* CCNC(=O)Nc1sc2ccccc2c1C(=O)N1CCC(N2CCCC3(C2)C(=O)N2CCCCCCN2C3=O)CC1 | 200
* CNC(=O)Nc1sc2ccccc2c1C(=O)N1CCC(N2CCCC3(C2)C(=O)N2CCCCN2C3=O)CC1 | 12
* CCNC(=O)Nc1sc2ccccc2c1C(=O)N1CCC(N2CCCC3(C2)C(=O)N(C)N(C)C3=O)CC1 | 12
* CNC(=O)Nc1sc2c(OC)cccc2c1C(=O)N1CCC(N2CCCC3(C2)C(=O)N2CCCCN2C3=O)CC1 | 6
* CCNC(=O)Nc1sc2ccccc2c1C(=O)N1CCC(N2CCCC3(C2)C(=O)N2CCCCCN2C3=O)CC1 | 100
* CCN1C(=O)C2(CCCN(C3CCN(C(=O)c4c(NC(=O)NC)sc5ccccc45)CC3)C2)C(=O)N1CC | 120
* CCNC(=O)Nc1sc2c(OC)cccc2c1C(=O)N1CCC(N2CCCC3(C2)C(=O)N2CCCCN2C3=O)CC1 | 35

Exam item: Look at this molecule and give its reported microsomal CLint. CNC(=O)Nc1sc2ccccc2c1C(=O)N1CCC(N2CCCC3(C2)C(=O)N2CCCCCN2C3=O)CC1
Marked response: 71

Exam item: Look at this molecule and give its reported microsomal CLint. CCNC(=O)Nc1sc2ccccc2c1C(=O)N1CCC(N2CCCC3(C2)C(=O)N2CCCCN2C3=O)CC1
Marked response: 18

Exam item: Look at this molecule and give its reported microsomal CLint. COc1cccc2c(C(=O)N3CCC(N4CCCC5(C4)C(=O)N4CCCCN4C5=O)CC3)c(NC(N)=O)sc12
Marked response: 15

###

Consider the following molecules and their measured IC50 readings.
ASSAYED_SYSTEM: Acetyl-CoA carboxylase 1 (Homo sapiens, UniProt Q13085)
Express the result in nM but write the number alone.

Below, each entry is followed by its recorded IC50 result.
• COc1cccc2c(C(=O)N3CCC(N4CCCC5(C4)C(=O)N4CCCCN4C5=O)CC3)c(NC(N)=O)sc12 = 22
• CCNC(=O)Nc1sc2ccccc2c1C(=O)N1CCC(N2CCCC3(C2)C(=O)N2CCCCCCN2C3=O)CC1 = 22

Exam item: Kindly state the measured IC50 obtained for CCNC(=O)Nc1sc2ccccc2c1C(=O)N1CCC(N2CCCC3(C2)C(=O)N2CCCN2C3=O)CC1 with Acetyl-CoA carboxylase 1 (Homo sapiens, UniProt Q13085).
Marked response: 170

###

RUN_DESCRIPTION: Inhibition of rat ACC2
OUTCOME_MEASURE: IC50
Your reply should be a number followed by the unit it is expressed in.

Exam item: Look at this compound and give its reported IC50. CCNC(=O)Nc1sc2c(OC)cccc2c1C(=O)N1CCC(N2CCCC3(C2)C(=O)N2CCCCN2C3=O)CC1
Marked response: 13 nM

###

RUN_DESCRIPTION: Lipophilicity, log D of the compound by HPLC analysis at pH 7
Format: physicochemical
MEASUREMENT_SETUP: buffer
OUTCOME_MEASURE: logD
// no unit string in output, number only

- CCNC(=O)Nc1sc2ccccc2c1C(=O)N1CCC(N2CCCC3(C2)C(=O)N2CCCCCCN2C3=O)CC1: 2.73
- CNC(=O)Nc1sc2ccccc2c1C(=O)N1CCC(N2CCCC3(C2)C(=O)N2CCCCCN2C3=O)CC1: 2.14
- CCNC(=O)Nc1sc2ccccc2c1C(=O)N1CCC(N2CCCC3(C2)C(=O)N2CCCCN2C3=O)CC1: 2.45
- CNC(=O)Nc1sc2ccccc2c1C(=O)N1CCC(N2CCCC3(C2)C(=O)N2CCCCN2C3=O)CC1: 2.14
- CCNC(=O)Nc1sc2c(OC)cccc2c1C(=O)N1CCC(N2CCCC3(C2)C(=O)N2CCCCN2C3=O)CC1: 2.33

Exam item: Look at this compound and give its reported logD. CNC(=O)Nc1sc2c(OC)cccc2c1C(=O)N1CCC(N2CCCC3(C2)C(=O)N2CCCCN2C3=O)CC1
Marked response: 2.08

Exam item: Look at this compound and give its reported logD. CCN1C(=O)C2(CCCN(C3CCN(C(=O)c4c(NC(=O)NC)sc5ccccc45)CC3)C2)C(=O)N1CC
Marked response: 2.33

Exam item: Look at this compound and give its reported logD. CCNC(=O)Nc1sc2ccccc2c1C(=O)N1CCC(N2CCCC3(C2)C(=O)N2CCCN2C3=O)CC1
Marked response: 1.93

Exam item: Look at this compound and give its reported logD. CCNC(=O)Nc1sc2ccccc2c1C(=O)N1CCC(N2CCCC3(C2)C(=O)N2CCCCCN2C3=O)CC1
Marked response: 2.48

Exam item: Look at this compound and give its reported logD. COc1cccc2c(C(=O)N3CCC(N4CCCC5(C4)C(=O)N4CCCCN4C5=O)CC3)c(NC(N)=O)sc12
Marked response: 1.76

Exam item: Look at this compound and give its reported logD. CCNC(=O)Nc1sc2ccccc2c1C(=O)N1CCC(N2CCCC3(C2)C(=O)N(C)N(C)C3=O)CC1
Marked response: 2.03
